# assayedTarget: T1, human MASP-2cf CCP1-CCP2-SP (human, UniProt O00187 298-686, limits assumed)
# T1 construct: domain: CCP1-CCP2-SP; also called human MASP-2 catalytic fragment
# T1 sequence (O00187 298-686 limits assumed): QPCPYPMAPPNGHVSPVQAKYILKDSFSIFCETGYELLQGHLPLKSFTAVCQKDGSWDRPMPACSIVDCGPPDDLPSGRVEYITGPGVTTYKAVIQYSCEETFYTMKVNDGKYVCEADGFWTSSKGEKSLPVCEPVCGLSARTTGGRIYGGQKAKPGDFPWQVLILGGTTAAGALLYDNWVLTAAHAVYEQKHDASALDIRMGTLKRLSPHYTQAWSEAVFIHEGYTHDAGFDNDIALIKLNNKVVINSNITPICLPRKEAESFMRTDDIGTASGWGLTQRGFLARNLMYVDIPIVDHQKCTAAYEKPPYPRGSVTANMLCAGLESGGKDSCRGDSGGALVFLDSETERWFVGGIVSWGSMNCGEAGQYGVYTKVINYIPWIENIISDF
# experimentNotes: SPR, target immobilised
Where no end group is shown, it is not given here.
measurementLabel: Relative affinity (fold vs EVO2)
Your answer is read as fold vs EVO2, so omit the unit and give the number.

binder="EVO214 (designed binder, not fully specified; ends and bridges not checked, Modified TFPI-D2 Kunitz domain; made as m1) KPDFCFLENDPGPCRALKLRYFYNNQTKQCERFGYGGCLGNMNNFVTLEECKNICEDG" measurementlabel="Relative affinity" measurement=47.6
binder="EVO23 (designed binder, not fully specified; cysteine pairing not given here, Modified TFPI-D2 Kunitz domain; made as m1) KPDFCFLENDPGPCRALKRRYFYNNQTKQCERFYYGGCFGNMNNFVTLEECKNICEDG" measurementlabel="Relative affinity" measurement=19.1

Ask: # lookup: Relative affinity of EVO25 (designed binder, not fully specified; cysteine pairing not given here, Modified TFPI-D2 Kunitz domain; made as m1) KPDFCFLENDPGPCRALKRRYFYNNQTKQCERFYYGGCFGNMNNFETLEECKNICEDG
Reply: 8.8

Ask: Could you tell me which Relative affinity is on file for EVO221 (designed binder, not fully specified; cysteine pairing not given here, Modified TFPI-D2 Kunitz domain; made as m1) KPDFCFLENDPGVCRAAAVRYFYNNQTKQCERFYYGGCLGNMNNFVTLEECKNICEDG ?
Reply: 14.1
